METHOD_SUMMARY: NCI Yeast Anticancer Drug Screen. Data for the sgs1 mgt1 strain (AID 161);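 note: 0% = growth of cultures given vehicle only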
CONDITION_PARAMETERS: S. cerevisiae sgs1 mgt1 strain, at 50.0 µM, hits give high values
This is part of a sample that, as a whole, favours compounds with a hit. Of some 79,000 tested, about 15% had one in any assay.
I would appreciate it if you labelled entries yes (1) when growth inhibition is 10% or higher, otherwise no (0).

Completed entries (count: 8):
Task: Form field: growth inhibition at least 10%? Entry: O=C(O)c1c(Br)c(Br)c(Br)c(Br)c1C(=O)Nc1ccccc1C(F)(F)F
Result: no (0)

Task: Please indicate if the recorded growth inhibition for CCc1nc(N)nc(N)c1-c1ccc2c(c1)nnn2C meets or exceeds 10%.
Result: no (0)

Task: Quick check: does Cc1cc(S(=O)(=O)Nc2nc3ccccc3[nH]2)c(S)cc1Cl have growth inhibition greater than or equal to 10%?
Result: yes (1)

Task: Is growth inhibition at least 10%? Consider CC1=N/C(=C/c2ccc3c(c2)OCO3)C(=O)O1
Result: no (0)

Task: Can c1ccc(CCc2ccncc2)cc1 be said to have growth inhibition at or above 10%?
Result: no (0)

Task: Please tell me: is the molecule C[C@]12CC[C@@H]3c4ccc(OS(=O)(=O)O)cc4CC[C@H]3[C@@H]1CCC2=O at or over 10% in terms of growth inhibition?
Result: yes (1)

Task: Determine whether measured growth inhibition meets or exceeds 10% for C=CCNC(=S)Nc1ccc(OC(=O)NC2CCCCC2)cc1
Result: yes (1)

Task: Check if growth inhibition >= 10% (inclusive). Item: Cn1c(C=O)cc2c(Cl)nccc21
Result: no (0)

Others:
Task: Would you say O=[N+]([O-])c1cc(F)c(F)cc1F shows growth inhibition at minimum 10%?
Result: no (0)

Task: Is growth inhibition for COc1ccc(C(O)C(C)(C(=O)O)c2ccccc2)cc1 (configuration not stated) at or above 10%?
Result: no (0)

Task: Answer whether growth inhibition of Fc1cccc2cccnc12 is greater than or equal to 10%.
Result: yes (1)

Task: Is the recorded value of growth inhibition equal to or greater than 10% for this molecule? CCC(=N\NC(N)=S)/C(C)=N/O
Result: yes (1)
